The reported measurements were obtained from ChEMBL document CHEMBL5331071.

- TEST_SYSTEM: Stimulator of interferon genes protein (Homo sapiens, UniProt Q86WV6)
- Sequence (Q86WV6 whole entry): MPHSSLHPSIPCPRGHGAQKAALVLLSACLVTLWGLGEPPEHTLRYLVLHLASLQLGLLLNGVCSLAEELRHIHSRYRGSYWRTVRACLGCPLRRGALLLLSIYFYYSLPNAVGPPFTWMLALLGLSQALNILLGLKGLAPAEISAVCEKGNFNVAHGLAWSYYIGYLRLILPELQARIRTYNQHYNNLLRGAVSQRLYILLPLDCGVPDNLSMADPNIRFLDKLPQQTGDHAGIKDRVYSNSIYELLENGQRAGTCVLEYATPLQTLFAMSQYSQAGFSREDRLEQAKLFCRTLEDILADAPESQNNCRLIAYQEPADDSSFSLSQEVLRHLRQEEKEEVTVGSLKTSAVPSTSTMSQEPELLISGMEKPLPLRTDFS
- ASSAY_TEXT: Agonist activity at STING in human THP1-Dual cells incubated for 20 hrs by Quanti-luc reagent based assay
- Type: cell-based
pEC50: −log10 of the molar value.

>  <SMILES_ENTRY>
CCn1nc(C)cc1C(=O)Nc1nc2cc(C(N)=O)cc(OC)c2n1NCCCC(=O)NCc1ccc(Cl)cc1

>  <TEST_SYSTEM>
Stimulator of interferon genes protein (Homo sapiens, UniProt Q86WV6)

>  <pEC50>
5.49

$$$$
>  <SMILES_ENTRY>
CCn1nc(C)cc1C(=O)Nc1nc2cc(C(N)=O)cc(OC)c2n1NCCCNC(=O)NCc1ccccc1

>  <TEST_SYSTEM>
Stimulator of interferon genes protein (Homo sapiens, UniProt Q86WV6)

>  <pEC50>
5.07

$$$$
>  <SMILES_ENTRY>
CCn1nc(C)cc1C(=O)Nc1nc2cc(C(N)=O)cc(OC)c2n1CCCC(=O)NCc1ccccc1

>  <TEST_SYSTEM>
Stimulator of interferon genes protein (Homo sapiens, UniProt Q86WV6)

>  <pEC50>
5.38

$$$$
>  <SMILES_ENTRY>
CCn1nc(C)cc1C(=O)Nc1nc2cc(C(N)=O)cc(OC)c2n1CCCC(=O)NCc1ccc2ccccc2c1

>  <TEST_SYSTEM>
Stimulator of interferon genes protein (Homo sapiens, UniProt Q86WV6)

>  <pEC50>
5.15

$$$$
>  <SMILES_ENTRY>
CCn1nc(C)cc1C(=O)Nc1nc2cc(C(N)=O)cc(OC)c2n1NCCCC(=O)NCc1ccc(F)cc1F

>  <TEST_SYSTEM>
Stimulator of interferon genes protein (Homo sapiens, UniProt Q86WV6)

>  <pEC50>
5.45

$$$$
